# procedureDetails: Toxicity liver stage against HepG2, at 10uM
# Format: cell-based
# Parameters: test concentration 10 uM, cell line HepG2-A16-CD81EGFP
# conditionInfo: human, HepG2-A16-CD81EGFP cells; read-out: INHIBITION
Recorded measurements of cytotoxicity at 10 µM, one per entry
Answer in %, number only, no unit symbol.

Some compounds with recorded cytotoxicity at 10 µM:
CCc1nncn1CCNC(=O)Nc1ccc(OC)c(C)c1 | 9.89
N#CCCNC(=O)CN1CCC(c2cc3ccccc3[nH]2)CC1 | 0.91
Cc1cnn(CC2CCCCN2C(=O)c2ccc(C#N)c(C)n2)c1 (configuration not stated) | -1.18
Cc1noc(C)c1CN1CCCCC1c1nc(-c2ccccc2)no1 (configuration not stated) | -44
Cc1ccc(CNC(=O)CN2CCCCC2Cn2cncn2)s1 (configuration not stated) | 1.8

IN: Quick one: cytotoxicity at 10 µM of CCNC(c1ccc(C)cc1)c1cccnc1 (configuration not stated) ?
OUT: 0.533

IN: # input compound: CN(C(=O)CCc1ccncc1)C1CCCN(CCc2ccccc2)C1 (configuration not stated) ; wanted: its cytotoxicity at 10 µM
OUT: -13.5

IN: Item under review: c1cc(CN2CC[C@H]3O[C@@H](COCC4CCOCC4)CC[C@H]32)ccn1 . Reported cytotoxicity at 10 µM?
OUT: -69.8

IN: cytotoxicity at 10 µM lookup needed for COc1cc2c(cc1CNC(=O)C(C)n1ccnc1C(C)C)OCCO2 (configuration not stated) , thanks.
OUT: -1.3

---

# cytotoxicity at 10 µM values compiled below
# procedureDetails: Toxicity liver stage against HepG2, at 10uM
# Format: cell-based
# Parameters: test concentration 10 uM, cell line HepG2-A16-CD81EGFP
# conditionInfo: human, HepG2-A16-CD81EGFP cells; read-out: INHIBITION
Report as a plain number; the unit % is understood.

O=C(Nc1cccnc1)[C@H]1COC[C@H]2CN(C3CCCC3)C[C@H]21 | -20.1
COc1cc(F)ccc1C(C(=O)O)N(C)CCN1CCOCC1 (configuration not stated) | -12.9
Cc1nc(C#N)c(N2CCC(c3nc(-c4ccccc4)no3)CC2)o1 | -7.41
CN(C)C(=O)[C@@H]1C[C@@H]2CCN(C3CCOCC3)C[C@H]2O1 | 7.86

IN: What value of cytotoxicity at 10 µM has been recorded for this entry: CCN(C(=O)c1cccc2c1OCO2)c1ccccc1
OUT: 0.944

IN: Which cytotoxicity at 10 µM reading was recorded for the compound C1CC(c2nnc(CN3CCCC3c3noc(C4CC4)n3)o2)C1 (configuration not stated) ?
OUT: -7.77

IN: If you can, please state the reported cytotoxicity at 10 µM value of CC(C)S(=O)(=O)N1C[C@@H](c2ccccc2)[C@H]2[C@H]1CCCCCN2C .
OUT: 0.247

IN: Look up cytotoxicity at 10 µM: Cc1cc(CN(C)C2CCCN(Cc3noc(C)n3)C2)no1 (configuration not stated)
OUT: 1.46

IN: I would be grateful if you could share the reported cytotoxicity at 10 µM for COc1cc(C(C)=O)ccc1OCC(=O)N(CC(C)C#N)C1CC1 (configuration not stated) .
OUT: -2.45

---

# procedureDetails: Toxicity liver stage against HepG2, at 10uM
# Format: cell-based
# Design: test concentration 10 uM, cell line HepG2-A16-CD81EGFP
# conditionInfo: human, HepG2-A16-CD81EGFP cells; read-out: INHIBITION
resultType: cytotoxicity at 10 µM (%)
Reply with just the number (in %).

Example cases with answers are listed next.
CC(C)c1nn(C)c(N2CCOCC2)c1CNCc1nncn1C | 5.59
COCCN1CCC(C(=O)c2cc(F)ccc2F)CC1 | -9.47
CNC(=O)c1cc2c(nc1NC(C)C)CCNCC2 | 0.102
Cc1ccc(C(=O)NCCCn2cncn2)c(=O)[nH]1 | -14.4
CCCS(=O)(=O)N1CCC2(CC1)CCn1c(-c3cnn(C)c3)cnc12 | -142
Cc1cc(C(=O)N2CCCC(C)C2)ccc1NCc1nc(C(C)C)no1 (centres undefined) | -9.84
Cc1cc(C(=O)N2CCC3(CCC(=O)N(CC(N)=O)C3)CC2)ccc1O | -7.5
COc1cc(CNCCc2cnn(C)c2)cc2c1OCCO2 | -4.82

IN: Which value of cytotoxicity at 10 µM has been reported for Cc1cc(CNC(=O)c2cn(CCC3CCCCN3)nn2)on1 (centres undefined) in the records?
OUT: -7.19

IN: Please look up its cytotoxicity at 10 µM: Cc1ccc(-n2ccnc2)c(C(=O)NCCOCC(F)(F)F)c1
OUT: -136

IN: For the compound shown here, O=S(=O)(Cc1ccccc1)NCc1nnc2n1CCC2 , give the reported cytotoxicity at 10 µM.
OUT: 16.2

IN: Requested read-out: cytotoxicity at 10 µM. Entry: Cc1nc(CN2CCCN(C(=O)c3ccn(C)c(=O)c3)CC2)cs1
OUT: -12.7

IN: Fill in: cytotoxicity at 10 µM of COc1cc2c(nn1)CCN(Cc1noc(-c3ccccc3)n1)C2 is ___
OUT: -1.49

IN: Please give the measured cytotoxicity at 10 µM for this compound: CN1CCN(C2CCOCC2)CC12CCC(=O)N(CC1CC1)CC2 (centres undefined)
OUT: -1.93

IN: Name the reported cytotoxicity at 10 µM value associated with the compound NCCn1cc(C(=O)N2CCCCCC2c2cccc(F)c2)nn1 (centres undefined)
OUT: 8.48

IN: Which cytotoxicity at 10 µM is reported for this compound? COCCN(C)c1ccc(NCc2cccnc2)nc1
OUT: -9.9

IN: Which cytotoxicity at 10 µM is reported for this compound? Cc1nn(CC(C)C)c(N(C)C)c1CNCCCNS(C)(=O)=O
OUT: 1.73

IN: Reported cytotoxicity at 10 µM for NS(=O)(=O)NCC1(c2ccccc2Br)CC1 : what is it?
OUT: 2.91

IN: Name the recorded cytotoxicity at 10 µM for CCN(Cc1ccoc1)C(=O)c1cc(C)c(C)c(S(N)(=O)=O)c1 .
OUT: -1.69

IN: Which cytotoxicity at 10 µM reading was recorded for the compound CCc1ncc(C(=O)N2CC[C@H]3CC[C@@H](C2)N3C)cn1 ?
OUT: -7.09

IN: Fill blank: measured cytotoxicity at 10 µM of the compound CCc1nc(CN2CCN(C(=O)c3cncnc3CC)CC2)cs1 is ____.
OUT: -11.4
